Values were extracted from paper PMC5967867.

Target: GluN1/GluN2C NMDARs (Rattus norvegicus, UniProt P35439+Q00961)
Sequence (Q00961 20-1237, other chains not shown): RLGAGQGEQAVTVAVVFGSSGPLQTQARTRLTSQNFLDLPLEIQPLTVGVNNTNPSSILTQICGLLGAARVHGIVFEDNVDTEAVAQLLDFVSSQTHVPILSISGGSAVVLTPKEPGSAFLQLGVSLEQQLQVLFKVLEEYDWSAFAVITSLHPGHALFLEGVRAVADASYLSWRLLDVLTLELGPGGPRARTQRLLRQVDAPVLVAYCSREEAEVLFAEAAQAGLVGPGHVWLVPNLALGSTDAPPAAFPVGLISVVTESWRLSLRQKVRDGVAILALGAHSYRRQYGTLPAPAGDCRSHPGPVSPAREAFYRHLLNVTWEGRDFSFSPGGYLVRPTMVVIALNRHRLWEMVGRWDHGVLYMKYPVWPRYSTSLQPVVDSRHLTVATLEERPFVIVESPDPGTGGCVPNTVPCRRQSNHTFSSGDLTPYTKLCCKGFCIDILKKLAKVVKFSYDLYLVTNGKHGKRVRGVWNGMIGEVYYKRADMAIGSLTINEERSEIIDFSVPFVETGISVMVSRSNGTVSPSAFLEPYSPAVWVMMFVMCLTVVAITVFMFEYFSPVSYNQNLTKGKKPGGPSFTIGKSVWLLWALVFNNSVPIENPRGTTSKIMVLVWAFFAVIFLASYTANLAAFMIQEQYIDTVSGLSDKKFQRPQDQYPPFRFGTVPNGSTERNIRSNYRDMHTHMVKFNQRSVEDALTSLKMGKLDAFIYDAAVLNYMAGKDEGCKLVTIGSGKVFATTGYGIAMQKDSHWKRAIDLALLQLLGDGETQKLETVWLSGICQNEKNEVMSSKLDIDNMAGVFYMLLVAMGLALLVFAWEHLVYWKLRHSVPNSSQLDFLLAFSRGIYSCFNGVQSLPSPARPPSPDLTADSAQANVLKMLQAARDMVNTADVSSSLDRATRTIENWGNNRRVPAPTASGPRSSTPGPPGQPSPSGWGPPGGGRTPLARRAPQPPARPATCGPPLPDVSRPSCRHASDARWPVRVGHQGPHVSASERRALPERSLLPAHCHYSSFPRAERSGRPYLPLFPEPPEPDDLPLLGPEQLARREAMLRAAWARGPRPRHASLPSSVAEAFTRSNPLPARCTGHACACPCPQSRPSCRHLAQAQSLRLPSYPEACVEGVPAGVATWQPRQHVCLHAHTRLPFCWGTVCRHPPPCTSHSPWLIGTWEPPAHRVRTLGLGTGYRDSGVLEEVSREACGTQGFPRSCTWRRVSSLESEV
Experiment: Two-electrode voltage-clamp recordings, Xenopus laevis oocytes expressing GluN1/GluN2C
Format: cell-based
Details: +EU1794-27 20 µM; glutamate/glycine 100/30 µM; read-out: EU1794-2 IC50 (µM) [conf. int.]
measured_attribute: IC50 (µM)
Hi! Could you send only the number? It should be in µM, unit omitted.

For the molecule shown here, CCOC(=O)c1c(NC(=O)CC2SC(=N)NC2=O)sc2c1CCC(C)C2 (stereo not shown) , give the reported IC50. 6

###

The reader will find reported EC50 values listed item by item below.
Target: GluN1/GluN2A NMDARs (Rattus norvegicus, UniProt P35439+Q00959)
Sequence (Q00959 23-1464, other chains not shown): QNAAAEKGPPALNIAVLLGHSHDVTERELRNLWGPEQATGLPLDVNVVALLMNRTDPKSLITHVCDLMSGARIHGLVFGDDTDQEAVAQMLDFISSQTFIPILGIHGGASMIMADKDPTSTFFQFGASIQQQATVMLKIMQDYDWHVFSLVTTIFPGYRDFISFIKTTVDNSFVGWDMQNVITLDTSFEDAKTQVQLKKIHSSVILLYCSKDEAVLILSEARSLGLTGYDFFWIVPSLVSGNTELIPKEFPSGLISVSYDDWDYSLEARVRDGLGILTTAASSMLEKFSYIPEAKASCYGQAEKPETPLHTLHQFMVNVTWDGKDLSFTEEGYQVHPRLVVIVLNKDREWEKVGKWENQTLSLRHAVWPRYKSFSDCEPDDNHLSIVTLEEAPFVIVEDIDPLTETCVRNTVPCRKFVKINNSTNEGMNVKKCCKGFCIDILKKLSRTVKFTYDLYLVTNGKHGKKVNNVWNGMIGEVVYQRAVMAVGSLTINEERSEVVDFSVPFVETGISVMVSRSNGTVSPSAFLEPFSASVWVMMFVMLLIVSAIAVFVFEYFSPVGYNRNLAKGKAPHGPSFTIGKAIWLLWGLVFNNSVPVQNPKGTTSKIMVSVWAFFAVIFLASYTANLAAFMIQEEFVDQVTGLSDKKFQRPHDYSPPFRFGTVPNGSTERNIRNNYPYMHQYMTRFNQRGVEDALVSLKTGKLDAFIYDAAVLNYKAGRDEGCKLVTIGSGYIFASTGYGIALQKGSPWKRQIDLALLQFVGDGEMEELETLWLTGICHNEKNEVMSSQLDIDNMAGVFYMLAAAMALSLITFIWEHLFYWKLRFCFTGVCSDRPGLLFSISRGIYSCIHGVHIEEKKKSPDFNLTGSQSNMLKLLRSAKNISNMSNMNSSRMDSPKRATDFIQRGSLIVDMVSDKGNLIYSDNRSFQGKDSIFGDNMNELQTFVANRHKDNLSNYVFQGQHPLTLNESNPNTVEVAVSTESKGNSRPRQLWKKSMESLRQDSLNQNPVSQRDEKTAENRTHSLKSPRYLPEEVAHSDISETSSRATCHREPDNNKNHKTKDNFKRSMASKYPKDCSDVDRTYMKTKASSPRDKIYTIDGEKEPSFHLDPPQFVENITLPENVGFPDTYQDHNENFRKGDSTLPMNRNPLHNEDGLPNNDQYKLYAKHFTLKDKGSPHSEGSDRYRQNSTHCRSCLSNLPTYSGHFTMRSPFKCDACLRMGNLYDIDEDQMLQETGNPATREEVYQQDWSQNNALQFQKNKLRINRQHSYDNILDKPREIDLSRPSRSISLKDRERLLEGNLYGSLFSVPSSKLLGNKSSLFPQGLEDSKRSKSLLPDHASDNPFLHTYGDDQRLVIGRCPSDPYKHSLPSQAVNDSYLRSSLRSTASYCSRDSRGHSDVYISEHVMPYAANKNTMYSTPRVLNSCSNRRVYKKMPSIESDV
Experiment: Two-electrode voltage-clamp recordings, Xenopus laevis oocytes expressing GluN1/GluN2A
Format: cell-based
Settings: saturating glutamate/glycine 100/30 µM; mean [95% CI]; - = not fit, response at 30 µM differed by no more than 15% from control; read-out: EC50 (µM) [conf. int.]
Hi! Could you send only the number? It should be in µM, unit omitted.

For the molecule shown here, CC(C)(C)OC(=O)c1c(NC(=O)CC2SC(=N)NC2=O)sc2c1CCCC2 (centres unmarked) , give the reported EC50. 7.4

For the molecule shown here, CCCCOC(=O)c1c(NC(=O)CC2SC(=N)NC2=O)sc2c1CCCC2 (centres unmarked) , give the reported EC50. 3.7

For the molecule shown here, CCOC(=O)c1c(NC(=O)CC2SC(=N)NC2=O)sc2c1CCC(C)C2 (centres unmarked) , give the reported EC50. 0.6

Now, please, on to the next molecule.
For the molecule shown here, CCOC(=O)c1c(NC(=O)CC2SC(=N)NC2=O)sc2c1CCCC2 (centres unmarked) , give the reported EC50. 2.2
